Biological target: HGSNAT (heparan sulfate acetyl-CoA: α-glucosaminide N-acetyltransferase), HGSNAT-TAP (Homo sapiens, UniProt Q68CP4)
Construct: transient expression in COS-7 cells; homogenate or streptavidin-resin partially purified; ~77 kDa
Sequence (Q68CP4 1-663): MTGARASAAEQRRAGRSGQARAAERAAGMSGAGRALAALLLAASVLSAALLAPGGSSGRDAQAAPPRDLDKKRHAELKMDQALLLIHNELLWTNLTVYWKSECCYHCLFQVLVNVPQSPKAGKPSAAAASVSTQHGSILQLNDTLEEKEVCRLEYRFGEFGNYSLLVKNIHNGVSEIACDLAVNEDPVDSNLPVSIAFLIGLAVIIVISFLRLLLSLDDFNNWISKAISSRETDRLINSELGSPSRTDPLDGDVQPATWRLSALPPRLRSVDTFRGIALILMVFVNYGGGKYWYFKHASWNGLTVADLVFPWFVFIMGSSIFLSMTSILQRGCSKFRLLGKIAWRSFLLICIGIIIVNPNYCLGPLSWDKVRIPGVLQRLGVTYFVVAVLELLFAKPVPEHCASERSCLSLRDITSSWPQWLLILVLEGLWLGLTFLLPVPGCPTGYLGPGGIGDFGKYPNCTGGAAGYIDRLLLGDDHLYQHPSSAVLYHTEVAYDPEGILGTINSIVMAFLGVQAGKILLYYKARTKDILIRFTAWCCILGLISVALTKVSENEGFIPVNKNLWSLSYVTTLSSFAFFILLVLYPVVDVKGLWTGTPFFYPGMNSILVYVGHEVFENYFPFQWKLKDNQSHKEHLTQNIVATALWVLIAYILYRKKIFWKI
Experiment: fluorogenic N-acetyltransferase assay, Dixon plot, homogenate of transfected COS-7 cells
Settings: competitive; 4MU-βGlcN 0.0375-1.5 mM, 2 mM acetyl-CoA, McIlvain buffer pH 5.7, 37°C, 3 h
Where a name gives a salt, the structure may show the parent alone.
measurement.label: Ki

Dear colleague, I am looking for the recorded Ki of the following compound: N[C@H]1C(O)O[C@H](CO)[C@@H](O)[C@@H]1O (stereo partly drawn) [D-(+)-glucosamine hydrochloride] 280 µM
